MC4R selectivity vs MC3R listing for selected compounds.
target: human MC4R (Homo sapiens, UniProt P32245); construct: host or cells: HEK-293 cells stably expressing the GScAMP22F split-luciferase cAMP sensor and hMC4R, G418 selection; experiment: split-luciferase cAMP sensor assay, agonist mode (measurement window 1), hMC4R; format: cell-based
Sequence (P32245 whole entry): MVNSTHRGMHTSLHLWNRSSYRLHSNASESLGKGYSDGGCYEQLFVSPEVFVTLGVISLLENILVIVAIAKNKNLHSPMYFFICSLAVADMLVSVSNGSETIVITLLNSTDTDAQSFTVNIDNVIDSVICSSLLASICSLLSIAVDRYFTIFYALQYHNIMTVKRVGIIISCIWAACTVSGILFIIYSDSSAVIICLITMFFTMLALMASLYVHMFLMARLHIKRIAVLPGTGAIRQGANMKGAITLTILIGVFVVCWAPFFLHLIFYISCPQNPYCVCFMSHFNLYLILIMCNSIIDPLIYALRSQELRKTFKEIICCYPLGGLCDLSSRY
Positions of bridges follow the written chain, without caps; N, C: chain ends. Non-standard residues stand in square brackets, D forms with d. Residues, ends and D or L forms follow the SMILES beside them. dPhe(4-Br) = N[C@H](Cc1ccc(Br)cc1)C(=O)O; NMeR = CN[C@@H](CCCNC(=N)N)C(=O)O; dTic = O=C(O)[C@H]1Cc2ccccc2CN1; Nle = CCCC[C@H](N)C(=O)O
QUANTITY_KIND: MC4R selectivity vs MC3R

# COMPOUND, RECORDED_MEASUREMENT
rows = [
    ("CC(=O)N[C@@H](CCCNC(=N)N)C(=O)N[C@H]1CSSC[C@@H](C(N)=O)NC(=O)[C@@H](Cc2c[nH]c3ccccc23)NC(=O)[C@H](CCCNC(=N)N)NC(=O)[C@@H](Cc2ccc(Br)cc2)NC(=O)[C@H](CCCNC(=N)N)N(C)C(=O)[C@@H](C)NC1=O [CTX-1248] (Ac-RC[dA][NMeR][dPhe(4-Br)]R[dW]C-NH2; disulfide 2-8 (inferred))", 1.36),
    ("CCCC[C@H](NC(=O)[C@H](CCCNC(=N)N)NC(C)=O)C(=O)N[C@H]1CSSC[C@@H](C(N)=O)NC(=O)[C@@H](Cc2c[nH]c3ccccc23)NC(=O)[C@H](CCCNC(=N)N)NC(=O)[C@@H](Cc2ccc(Br)cc2)NC(=O)[C@H](CCCNC(=N)N)NC1=O [CTX-1613] (Ac-R[Nle]CR[dPhe(4-Br)]R[dW]C-NH2; disulfide 3-8 (inferred))", 2.1),
    ("CC(=O)N[C@@H](CCCNC(=N)N)C(=O)N[C@H]1CSSC[C@@H](C(N)=O)NC(=O)[C@H]2Cc3ccccc3CN2C(=O)[C@H](CCCNC(=N)N)NC(=O)[C@@H](Cc2ccc(Br)cc2)NC(=O)[C@H](CCCNC(=N)N)NC(=O)[C@@H](C)NC1=O [CTX-1256] (Ac-RC[dA]R[dPhe(4-Br)]R[dTic]C-NH2; disulfide 2-8 (inferred))", 0.08),
]
